# assay_protocol: solvent given as SMILES
# stated_conditions: in C1CCOC1
measurement_label: absorption maximum (nm)
Note: unit nm is implicit; provide only the numeric part.

Looking for the measured absorption maximum of Cc1ccc(-c2cnc3nn4ccccc4c3n2)cc1 , can you help?
400

Looking for the measured absorption maximum of CCn1c2ccccc2c2cc(/C=C/c3cc(/C=C/c4ccc5c(c4)c4ccccc4n5CC)ncn3)ccc21 , can you help?
397

Looking for the measured absorption maximum of COC(=O)c1cc2c(cc3ccc4cccc5ccc2c3c45)[nH]1 , can you help?
400

Looking for the measured absorption maximum of O=C1c2cc(-n3c4ccccc4c4ccccc43)ccc2S(=O)(=O)c2ccc(-n3c4ccccc4c4ccccc43)cc21 , can you help?
406
